Hello, the source for this data is paper PMC10095747, in case you need it.

Target: UniProt:P11712
Sequence (P11712 whole entry): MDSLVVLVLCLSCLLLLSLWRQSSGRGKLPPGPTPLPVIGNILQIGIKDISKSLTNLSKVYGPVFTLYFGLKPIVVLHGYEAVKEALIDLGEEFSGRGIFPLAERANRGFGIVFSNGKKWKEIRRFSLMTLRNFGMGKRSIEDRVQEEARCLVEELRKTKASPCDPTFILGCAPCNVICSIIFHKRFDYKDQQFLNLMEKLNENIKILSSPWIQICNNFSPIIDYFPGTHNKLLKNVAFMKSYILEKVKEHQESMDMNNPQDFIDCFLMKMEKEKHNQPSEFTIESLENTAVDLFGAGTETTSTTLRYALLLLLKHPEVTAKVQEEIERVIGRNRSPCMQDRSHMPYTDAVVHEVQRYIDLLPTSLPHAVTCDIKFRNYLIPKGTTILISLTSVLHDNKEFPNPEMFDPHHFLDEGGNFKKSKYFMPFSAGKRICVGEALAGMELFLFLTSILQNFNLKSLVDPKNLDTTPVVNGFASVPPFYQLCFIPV
Assay: luminogenic P450-Glo CYP450 inhibition assay, rCYP2C9
Settings: read-out: Median IC50 (Range) rCYP2C9; median (range), three independent experiments
Measurement Label: IC50

Record request: IC50 value, item C/C=C/C#CC#C/C=C/c1ccco1
> 686 µM

----------
Biological target: rCYP3A4 (Homo sapiens, UniProt P08684)
Sequence (P08684 whole entry): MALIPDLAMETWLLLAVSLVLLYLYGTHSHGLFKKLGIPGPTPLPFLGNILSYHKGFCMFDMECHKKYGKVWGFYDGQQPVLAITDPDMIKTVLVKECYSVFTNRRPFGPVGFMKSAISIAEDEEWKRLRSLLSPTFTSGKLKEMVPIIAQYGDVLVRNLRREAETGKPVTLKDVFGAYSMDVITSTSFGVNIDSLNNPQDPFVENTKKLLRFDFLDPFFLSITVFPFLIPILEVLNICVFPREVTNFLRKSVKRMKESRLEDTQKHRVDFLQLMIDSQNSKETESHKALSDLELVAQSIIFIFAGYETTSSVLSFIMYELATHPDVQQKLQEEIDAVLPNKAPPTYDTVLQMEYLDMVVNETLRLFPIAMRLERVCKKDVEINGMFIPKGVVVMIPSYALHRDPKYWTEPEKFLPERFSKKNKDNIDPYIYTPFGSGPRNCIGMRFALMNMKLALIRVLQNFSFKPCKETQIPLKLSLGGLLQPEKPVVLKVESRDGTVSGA
Assay: luminogenic P450-Glo CYP450 inhibition assay, rCYP3A4
Settings: read-out: Median IC50 (Range) rCYP3A4; median (range), three independent experiments
Procedure: The luminescent cytochrome P450 assay was used to determine CYP450-mediated (CYP1A2, 2C9, 2C19, 2D6, and 3A4) metabolism of atractylodin and β-eudesmol. […] The luminescence signals obtained were determined using a Varioskan® Flash microplate reader (Waltham, MA, USA). The magnitude of luminescence in all of the samples represented CYP450 activity. […]
pIC50: −log10 of the molar value.
Measurement Label: pIC50

Record request: pIC50 value, item C/C=C/C#CC#C/C=C/c1ccco1
< 3.16
